# Tested on: P12-Ichikawa
# Measurement protocol: cell viability relative to DMSO control; higher = less cytotoxic
# Protocol conditions: RPMI 5 mM glucose + 10% dialyzed FBS; 48 h; 1.71 µM
Note to self: cell viability under 90% means fulfilled, ties and anything higher get not fulfilled.

*Q* Does C[C@H](NC(=O)Cc1cc(F)cc(F)c1)C(=O)N[C@H](C(=O)OC(C)(C)C)c1ccccc1 have cell viability strictly under 90%?
*A* fulfilled

*Q* Does NCCCC(N)(C(=O)O)C(F)F (configuration not stated) have cell viability strictly under 90%?
*A* not fulfilled

*Q* Does CNC(=O)c1ccc2c(c1)NC(=O)/C2=C(\Nc1cccc(CN(C)C)c1)c1ccccc1 have cell viability strictly under 90%?
*A* not fulfilled

*Q* Does C=CC(=O)Nc1cccc(Sc2nc(Nc3ccc(N4CCN(C)CC4)cc3)ncc2Cl)c1 have cell viability strictly under 90%?
*A* not fulfilled

*Q* Does C[C@]1(O)CC(C1)C2=NC(=C3[N]2C=CN=C3N)C4=CC5=C(C=C4)C=CC(=N5)C6=CC=CC=C6 (configuration not stated) have cell viability strictly under 90%?
*A* fulfilled

*Q* Does CN(C)C/C=C/C(=O)Nc1ccc(C(=O)Nc2cccc(Nc3ncc(Cl)c(-c4c[nH]c5ccccc45)n3)c2)cc1 have cell viability strictly under 90%?
*A* fulfilled

====

Hi there, I'd appreciate the recorded cell viability for every entry that follows.
# System: SEM cells
# Measurement protocol: cell viability relative to DMSO control; higher = less cytotoxic
# Protocol conditions: HPLM + 10% dialyzed FBS; 48 h; 0.000781 µM
Numeric answer only, unit % assumed.

Noted for COc1ccc(F)c(F)c1C(=O)c1cnc(NC2CCN([S+](C)(=O)[O-])CC2)nc1N : its cell viability reads 94.9

Noted for CN1CC[C@H]([C@@H](O)C1)C2=C(O)C=C(O)C3=C2O\C(=C/C3=O)C4=CC=CC=C4Cl : its cell viability reads 104

Noted for C=CC(=O)Nc1cc2c(Nc3ccc(F)c(Cl)c3)ncnc2cc1C#CC(C)(C)N1CCN(C)CC1 : its cell viability reads 99.3

Noted for C[C@]12CC[C@H]3[C@@H](CC(=C)\C4=C\C(=O)\C=C/[C@]34C)[C@@H]1CCC2=O : its cell viability reads 89.7

Noted for NC1=NC(=O)N2CC12 (centres undefined) : its cell viability reads 84.2

Noted for CNc1nc(-c2ccc3c(N)n[nH]c3c2)cc(N2C[C@@H](C(=O)NC3CCCCC3)CC[C@H]2C)n1 : its cell viability reads 72.6

Noted for c1cc(-c2cnn3cc(-c4ccc(OCCN5CCCCC5)cc4)cnc23)ccn1 : its cell viability reads 69.3

Noted for Cc1nc(-c2ccc(OCC(C)C)c(C#N)c2)sc1C(=O)O : its cell viability reads 110

Noted for CCNC(=O)CCC/C=C\C[C@@H]1[C@@H](/C=C/C(O)CCc2ccccc2)[C@@H](O)C[C@@H]1O (some centres undefined) : its cell viability reads 96.2

====

# Tested on: NOMO1
# Measurement protocol: cell viability relative to DMSO control; higher = less cytotoxic
# Protocol conditions: RPMI 5 mM glucose + 10% FBS; 48 h; 0.000781 µM
Hi there, I'd appreciate the recorded cell viability for every entry that follows.
Numeric answer only, unit % assumed.

Noted for CN(C)c1nc(Cc2ccc(NC(=O)c3ccc(C(F)(F)F)cc3)cc2)nc(N(C)C)c1CC(=O)O : its cell viability reads 93

Noted for Cc1c(N)nc([C@H](CC(N)=O)NC[C@@H](N)C(N)=O)nc1C(=O)N[C@H](C(=O)N[C@@H](C)[C@H](O)[C@@H](C)C(=O)N[C@@H](C(=O)NCCc1nc(-c2nc(C(=O)NCCC[S+](C)C)cs2)cs1)[C@@H](C)O)C(O[C@H]1O[C@H](CO)[C@H](O)[C@@H](O)[C@H]1O[C@H]1O[C@H](CO)[C@@H](O)[C@H](OC(N)=O)[C@@H]1O)c1c[nH]cn1 (stereo partly drawn) : its cell viability reads 101

Noted for C=CC(=O)Nc1cccc(Sc2nc(Nc3ccc(N4CCN(C)CC4)cc3)ncc2Cl)c1 : its cell viability reads 97.3

====

Hi there, I'd appreciate the recorded cell viability for every entry that follows.
# Test system: P12-Ichikawa
# Measurement protocol: cell viability relative to DMSO control; higher = less cytotoxic
# Protocol conditions: HPLM + 10% dialyzed FBS; 48 h; 0.000781 µM
Numeric answer only, unit % assumed.

Noted for CC[C@H]1OC(=O)[C@H](C)[C@@H](O[C@H]2C[C@@](C)(OC)[C@@H](O)[C@H](C)O2)[C@H](C)[C@@H](O[C@@H]2O[C@H](C)C[C@H](N(C)C)[C@H]2O)[C@](C)(OC)C[C@@H](C)C(=O)[C@H](C)[C@@H](O)[C@]1(C)O : its cell viability reads 109

Noted for Cc1ccc2nc(NCCN)c3ncc(C)n3c2c1 : its cell viability reads 104

Noted for CO[C@@H](C(=O)N1Cc2[nH]nc(NC(=O)c3ccc(N4CCN(C)CC4)cc3)c2C1)c1ccccc1 : its cell viability reads 89.1

Noted for CN1C(=O)/C(=C(NC2=CC=C(I)C=C2F)\C3=C1\N=C/N(C[C@@H](O)CO)C3=O)F : its cell viability reads 86.5

Noted for C=C(c1ccc(C(=O)O)cc1)c1cc2c(cc1C)C(C)(C)CCC2(C)C : its cell viability reads 113

Noted for Cc1ccc([C@@H]2O[C@H](CO)[C@@H](O)[C@H](O)[C@H]2O)cc1Cc1ccc(-c2ccc(F)cc2)s1 : its cell viability reads 119

Noted for CCn1nnc2c(N3CCOCC3)nc(-c3ccc(NC(=O)Nc4ccc(C(=O)N5CCN(C)CC5)cc4)cc3)nc21 : its cell viability reads 103

====

Hi there, I'd appreciate the recorded cell viability for every entry that follows.
# System: SEM cells
# Measurement protocol: cell viability relative to DMSO control; higher = less cytotoxic
# Protocol conditions: RPMI 5 mM glucose + 10% dialyzed FBS; 48 h; 0.19 µM

Noted for C=C(c1ccc(C(=O)O)cc1)c1cc2c(cc1C)C(C)(C)CCC2(C)C : its cell viability reads 125%

Noted for CCc1ccc(OCc2ccccc2C(=O)Nc2ccc3nc(C)cc(N)c3c2)cc1 : its cell viability reads 114%

Noted for COc1cc(NCc2ccc3nc(N)nc(N)c3c2C)cc(OC)c1OC : its cell viability reads 94.8%

Noted for CCCCCCNC(=O)N1\C=C(F)/C(=O)NC1=O : its cell viability reads 107%

Noted for C[C@@H]1CC[C@@]2(CC[C@]3(C)\C(=C/C[C@@H]4[C@@]5(C)CC[C@H](O)C(C)(C)[C@@H]5CC[C@@]34C)[C@@H]2[C@H]1C)C(O)=O : its cell viability reads 118%

Noted for C[C@H](CCC(=O)O)[C@H]1CC[C@H]2[C@@H]3[C@H](O)C[C@@H]4C[C@H](O)CC[C@]4(C)[C@H]3CC[C@]12C : its cell viability reads 79.4%

Noted for C[C@]1(O)CC(C1)C2=NC(=C3[N]2C=CN=C3N)C4=CC5=C(C=C4)C=CC(=N5)C6=CC=CC=C6 (stereo not given) : its cell viability reads 55.8%

Noted for CCn1nnc2c(N3CCOCC3)nc(-c3ccc(NC(=O)Nc4ccc(C(=O)N5CCN(C)CC5)cc4)cc3)nc21 : its cell viability reads 54.3%

Noted for CN1C(=O)/C(=C(NC2=CC=C(I)C=C2F)\C3=C1\N=C/N(C[C@@H](O)CO)C3=O)F : its cell viability reads 64.2%

Noted for CC(C)C1CCC(C(=O)N[C@H](Cc2ccccc2)C(=O)O)CC1 (stereo not given in full) : its cell viability reads 21.7%

Noted for C/C1=C2/[N]3[Co+]456([OH])<-[N]7=C1[C@@H](CCC(N)=O)C(C)(C)/C7=C/C1=[N]->4C(=C(/C)C4=[N]->5[C@@](C)([C@H]3[C@H](CC(N)=O)[C@@]2(C)CCC(=O)NC[C@@H](C)OP(=O)([O-])O[C@H]2[C@@H](O)[C@@H](n3c[n]->6c5cc(C)c(C)cc53)O[C@@H]2CO)[C@@](C)(CC(N)=O)[C@@H]4CCC(N)=O)/[C@@](C)(CC(N)=O)[C@@H]1CCC(N)=O : its cell viability reads 95.6%

Noted for O=C(/C=C/c1ccc(/C=C/C(=O)Nc2ccc(C3=NCCN3)cc2)cc1)Nc1ccc(C2=NCCN2)cc1 : its cell viability reads 113%

Noted for COc1cc(C(=O)NC2CCN(C)CC2)ccc1Nc1ncc2c(n1)N(C1CCCC1)CCC(=O)N2C(C)C : its cell viability reads 111%

Noted for Clc2cccc(Cl)c2\N=C1/NCCN1 : its cell viability reads 132%

Noted for Cc1cc(Nc2cc(N3CCN(C)CC3)nc(/C=C/c3ccccc3)n2)n[nH]1 : its cell viability reads 57.8%

====

# Test system: NOMO1
# Measurement protocol: cell viability relative to DMSO control; higher = less cytotoxic
# Protocol conditions: HPLM + 10% dialyzed FBS; 48 h; 1.71 µM
Hi there, I'd appreciate the recorded cell viability for every entry that follows.
Numeric answer only, unit % assumed.

Noted for CC1(C)CC\C2=C(/O1)C3=C(C=CC=C3)C(=O)C2=O : its cell viability reads 118

Noted for CCn1nnc2c(N3CCOCC3)nc(-c3ccc(NC(=O)Nc4ccc(C(=O)N5CCN(C)CC5)cc4)cc3)nc21 : its cell viability reads 65.7

Noted for Clc2cccc(Cl)c2\N=C1/NCCN1 : its cell viability reads 118

Noted for CCNC(=O)Nc1ccc(Oc2ncnc(N)c2/C=N/OC)cc1Cl : its cell viability reads 125

Noted for CNC(=O)c1ccc2c(c1)NC(=O)/C2=C(\Nc1cccc(CN(C)C)c1)c1ccccc1 : its cell viability reads 91.9

Noted for C[C@]12CC[C@H]3[C@@H](CC(=C)\C4=C\C(=O)\C=C/[C@]34C)[C@@H]1CCC2=O : its cell viability reads 113

Noted for Cc1cc(Nc2ncc3c(n2)N(C)C(=O)N(c2cc(NC(=O)c4cccc(C(F)(F)F)c4)ccc2C)C3)n(C)n1 : its cell viability reads 56.7

Noted for c1cc(-c2cnn3cc(-c4ccc(OCCN5CCCCC5)cc4)cnc23)ccn1 : its cell viability reads 67.2

Noted for Nc1nc(F)nc2c1ncn2[C@@H]1O[C@H](COP(=O)(O)O)[C@@H](O)[C@@H]1O : its cell viability reads 126
